biological target: MAPK11 (human) (UniProt Q15759); test: radiometric filter-binding kinase assay; settings: compound 10.0 µM
Sequence (Q15759 whole entry, looked up): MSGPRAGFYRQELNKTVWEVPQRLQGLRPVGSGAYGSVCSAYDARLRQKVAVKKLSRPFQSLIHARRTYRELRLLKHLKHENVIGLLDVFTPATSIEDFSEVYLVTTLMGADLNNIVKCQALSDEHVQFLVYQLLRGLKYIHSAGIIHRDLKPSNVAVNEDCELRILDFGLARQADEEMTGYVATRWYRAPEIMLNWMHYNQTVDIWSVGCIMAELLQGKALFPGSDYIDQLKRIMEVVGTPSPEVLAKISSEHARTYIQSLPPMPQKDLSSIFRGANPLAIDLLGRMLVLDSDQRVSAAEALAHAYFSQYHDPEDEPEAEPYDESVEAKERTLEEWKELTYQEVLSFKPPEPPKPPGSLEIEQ
MEASURED ENDPOINT: residual activity (%)
Field format: number, assumed %, no unit text.

Respond only with residual activity recorded for Oc1ccc2ccccc2c1SSc1c(O)ccc2ccccc12
117

For the compound Cc1cc(SCc2sc(-c3ccc(C(F)(F)F)cc3)nc2C)ccc1OCC(=O)O , give its reported residual activity.
94

Given the compound O=C(O)c1ccc(-c2c[nH]c3ncc(-c4ccccc4)cc23)cc1C1CCCC1 , write its reported residual activity.
71

Retrieve residual activity measured for CCn1c(-c2nonc2N)nc2cncc(CNC3CCNCC3)c21 and print it.
89

Provide measured residual activity value, entry: O=S(=O)(c1ccc(F)c2nonc12)N1CCN(c2ncc(C(F)(F)F)cc2Cl)CC1
101

Identify residual activity associated with the compound CC(C)C[C@H](NC(=O)CNC(=O)c1cc(Cl)ccc1Cl)B1OC(=O)CC(CC(=O)O)(C(=O)O)O1 (stereo not given in full)
70

Quote residual activity reported for NC1(c2ccc(-c3nc4ccn5c(=O)[nH]nc5c4cc3-c3ccccc3)cc2)CCC1 please.
76

// fetch residual activity given entry O=C(O)c1cc(N=Nc2ccc(S(=O)(=O)Nc3ccccn3)cc2)ccc1O
109

State its residual activity for this compound: COc1cc(C(=O)N2CCOCC2)c(F)cc1Nc1ncc(C(F)(F)F)c(NC2CC2)n1
101

Provide measured residual activity value, entry: N#Cc1c(C2CCNCC2)cc(-c2c(O)cccc2OCC2CC2)nc1N
71

Please report residual activity for the following compound: CCCCCc1ccc(/C=C/[C@H](O)[C@@H](CO)NC)cc1
95

Tell us which residual activity value is on record for CCCC(CCC)C(=O)O
91

Output measured residual activity for this item: NC(=O)c1cc2c(-c3cccc(-c4ccccc4)c3)cnc(N)c2s1
80

Return the recorded residual activity value; entry: CN1C(=O)[C@@H](Cc2c[nH]c3ccccc23)NC1=S
88

Supply residual activity value. Item: NCC(=O)Nc1ccc(-n2nc(C(F)(F)F)cc2-c2ccc3c(ccc4ccccc43)c2)cc1
95

###

biological target: UniProtKB Q16513; assay: radiometric filter-binding kinase assay; conditions: compound 10.0 µM
Sequence (Q16513 whole entry, looked up): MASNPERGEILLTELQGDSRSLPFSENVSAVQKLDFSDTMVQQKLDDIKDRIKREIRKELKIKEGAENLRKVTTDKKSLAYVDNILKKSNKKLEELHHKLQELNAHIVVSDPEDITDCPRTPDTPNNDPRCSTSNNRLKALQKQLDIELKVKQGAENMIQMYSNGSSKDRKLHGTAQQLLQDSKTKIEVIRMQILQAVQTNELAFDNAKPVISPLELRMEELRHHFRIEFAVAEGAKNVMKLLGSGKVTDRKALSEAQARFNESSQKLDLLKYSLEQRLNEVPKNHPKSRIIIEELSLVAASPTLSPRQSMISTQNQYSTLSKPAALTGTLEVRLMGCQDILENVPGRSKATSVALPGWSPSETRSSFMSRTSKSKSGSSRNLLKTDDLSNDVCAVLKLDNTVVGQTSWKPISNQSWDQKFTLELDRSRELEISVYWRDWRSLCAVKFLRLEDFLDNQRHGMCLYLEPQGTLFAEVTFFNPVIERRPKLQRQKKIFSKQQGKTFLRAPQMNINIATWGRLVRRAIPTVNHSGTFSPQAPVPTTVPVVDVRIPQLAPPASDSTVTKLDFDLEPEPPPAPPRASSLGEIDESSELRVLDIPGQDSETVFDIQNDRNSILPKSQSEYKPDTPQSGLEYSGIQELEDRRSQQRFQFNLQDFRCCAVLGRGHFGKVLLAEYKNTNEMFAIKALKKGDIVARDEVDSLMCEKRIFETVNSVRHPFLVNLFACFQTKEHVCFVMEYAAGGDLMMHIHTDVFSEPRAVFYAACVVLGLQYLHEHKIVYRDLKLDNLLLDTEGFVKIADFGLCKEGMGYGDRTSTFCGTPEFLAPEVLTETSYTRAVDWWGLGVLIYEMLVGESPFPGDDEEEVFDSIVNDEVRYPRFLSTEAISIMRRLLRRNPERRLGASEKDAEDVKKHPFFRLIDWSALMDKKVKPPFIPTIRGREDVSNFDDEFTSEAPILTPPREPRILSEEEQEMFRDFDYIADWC
Assignment: determine reported residual activity for the given compounds.

Give residual activity for the following compound: NC(=O)Nc1ccc2c(c1)/C(=C/c1cc(-c3cccnc3)c[nH]1)C(=O)N2
6%

Give recorded residual activity. O=C(N[C@@H](COc1ccc2[nH]c(=O)[nH]c2c1)c1ccccc1)c1cccn(Cc2ccc(F)c(F)c2)c1=O
103%

Given the compound CCCCCc1ccc(/C=C/[C@H](O)[C@@H](CO)NC)cc1 , write its reported residual activity.
58%

Item COc1cc2ncn(-c3cc(OCc4ccccc4S(C)(=O)=O)c(C#N)s3)c2cc1OC : provide residual activity
64%

Provide measured residual activity value, entry: O=c1c(O)c(-c2ccc(O)c(O)c2)oc2cc(O)c(O)c(O)c12
102%

# return recorded residual activity for input C[C@H]1CCCC(=O)CCC/C=C/c2cc(O)cc(O)c2C(=O)O1
33%

Give recorded residual activity. O=C(O)c1cc(N=Nc2ccc(S(=O)(=O)Nc3ccccn3)cc2)ccc1O
90%

Supply recorded residual activity for CCOC(=O)c1ccc(N2NC(=O)/C(=C/c3ccc([N+](=O)[O-])o3)C2=O)cc1 here.
105%
